Entries and their normalized growth
Test: chemical genetic growth profiling, strain panel (AID 1159580);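 further: tested at 20 µM; growth read once vehicle control cultures reached saturation at 30 °C; 1 = growth at the plate median or of vehicle wells; lower values mean less growth of the strain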
Conditions: S. cerevisiae deletion strains, growth OD, locus YDR502C, strain sam2, hits give low values
Screen size: about 5,500 compounds; about 2,000 (36%) were called active. Another 18% or so got no clear call; they are omitted. The list shows a part of the results.
reported_endpoint: normalized growth

[
  {
    "molecule": "CCCc1cc(=O)[nH]c(=S)[nH]1",
    "reported_endpoint": "normalized growth",
    "reported_measurement": 0.989
  },
  {
    "molecule": "NNCc1cccc(O)c1",
    "reported_endpoint": "normalized growth",
    "reported_measurement": 0.996
  },
  {
    "molecule": "CC(C)CC1NC(=O)CNC1=O (centres undefined)",
    "reported_endpoint": "normalized growth",
    "reported_measurement": 0.987
  },
  {
    "molecule": "NC1=NCCN1CC(=O)O",
    "reported_endpoint": "normalized growth",
    "reported_measurement": 0.988
  },
  {
    "molecule": "CCCc1c(OCCCCc2nn[nH]n2)ccc(C(C)=O)c1O",
    "reported_endpoint": "normalized growth",
    "reported_measurement": 1.01
  },
  {
    "molecule": "CS(=O)(=O)c1ccc([C@@H](O)[C@@H](CO)NC(=O)C(Cl)Cl)cc1",
    "reported_endpoint": "normalized growth",
    "reported_measurement": 0.997
  },
  {
    "molecule": "CC(C)=CC1C(C(=O)O)C1(C)C (centres undefined)",
    "reported_endpoint": "normalized growth",
    "reported_measurement": 1.01
  },
  {
    "molecule": "CC(C)c1ccc2c(c1)CCC1C(C)(C(N)=O)CCCC21C (centres undefined)",
    "reported_endpoint": "normalized growth",
    "reported_measurement": 0.926
  },
  {
    "molecule": "NCCCCCCNS(=O)(=O)c1cccc2c(Cl)cccc12",
    "reported_endpoint": "normalized growth",
    "reported_measurement": 0.984
  },
  {
    "molecule": "Oc1cccc(O)c1",
    "reported_endpoint": "normalized growth",
    "reported_measurement": 0.984
  },
  {
    "molecule": "N=C(N)N",
    "reported_endpoint": "normalized growth",
    "reported_measurement": 0.999
  },
  {
    "molecule": "O=P1(N(CCCl)CCCl)NCCCO1 (centres undefined)",
    "reported_endpoint": "normalized growth",
    "reported_measurement": 1.06
  },
  {
    "molecule": "CC1(C)CC2C1CC[C@]1(CBr)CCC3C(CC(=O)O)C(=O)O[C@@]32C1 (some centres undefined)",
    "reported_endpoint": "normalized growth",
    "reported_measurement": 1.03
  },
  {
    "molecule": "CC(CCC(=O)O)[C@H]1CCC2C3CC[C@@H]4CC(=O)CC[C@]4(C)C3C=C[C@@]21C (some centres undefined)",
    "reported_endpoint": "normalized growth",
    "reported_measurement": 0.928
  },
  {
    "molecule": "COc1cc(C/C=C/c2ccccc2)c(OC)cc1O",
    "reported_endpoint": "normalized growth",
    "reported_measurement": 0.964
  },
  {
    "molecule": "NS(=O)(=O)c1cc2c(cc1Cl)NC(CSCc1ccccc1)=NS2(=O)=O",
    "reported_endpoint": "normalized growth",
    "reported_measurement": 0.988
  },
  {
    "molecule": "Nc1ccc(C(=O)O)cc1",
    "reported_endpoint": "normalized growth",
    "reported_measurement": 1.01
  },
  {
    "molecule": "COC(=O)/C(=C1\\OC(=O)C(c2ccccc2)=C1O)c1ccccc1",
    "reported_endpoint": "normalized growth",
    "reported_measurement": 1.01
  },
  {
    "molecule": "CC12CCC3C(CC3(C)C)C(C)(CCC1=O)O2 (centres undefined)",
    "reported_endpoint": "normalized growth",
    "reported_measurement": 1.04
  }
]
